Biological target: ScSla1-D1-D2
Assay: SPOT peptide array binding signal intensity (averaged, normalized) (arbitrary units (background-subtracted, floor 0; scale differs between SH3 domains)); higher = stronger binding of the SH3 domain to the peptide
TEST_READOUT: SPOT peptide array binding signal intensity
Provide a numeric answer; units are not to be included.

Item QLLNPNRRAPRRPLS has what recorded SPOT peptide array binding signal intensity?
247

Here is the next binder: FFRRSELYLPNSSKA
12

Would you mind doing KTKQQKPAIPQKKSF as well?
213

Quick one: RPVPRRPSQPLNTLS
1000

Continuing:
Item under review: LKRITSPPLPPRADS . Reported SPOT peptide array binding signal intensity?
492

What about this binder? RLSFFFPLDPAYIRN
13

What do you get for STKKPRPPVKSKPKH ?
34.5

Okay, and AATTSTPPLPRRRAT ?
760

Moving on to QRIRKIPGIPLMSVG
1610

Same again, this time with LYKRKPILLPDPKPL
135
